# measurement_target: UniProt:P00915
# run_description: Activation of human Carbonic anhydrase I, using histamine as standard
measure: KA (µM)

Worked cases, answers included:
CCc1cc(-c2ccccc2)cc(CC)[n+]1-c1nn[n-]n1 0.064
CCc1cc(-c2ccccc2)cc(CC)[n+]1-c1cc[nH]n1 0.027
Cc1cc(-c2ccccc2)cc(-c2ccccc2)[n+]1-c1cc[nH]n1 0.64
Cc1cc(-c2ccccc2)cc(-c2ccccc2)[n+]1-c1ncc[nH]1 0.303
CCCc1cc(-c2ccccc2)cc(-c2ccccc2)[n+]1-c1ncc[nH]1 1.9
Cc1cc(C)[n+](-c2cc[nH]n2)c(-c2ccccc2)c1 0.875
Cc1cc(-c2ccccc2)cc(C)[n+]1-c1ncc[nH]1.[O-][Cl+3]([O-])([O-])[O-] 0.021
CCCCc1cc(-c2ccccc2)cc(-c2ccccc2)[n+]1-c1cc[nH]n1 5.64

[P] c1ccc(-c2cc(-c3ccccc3)[n+](-c3nn[n-]n3)c(-c3ccccc3)c2)cc1
[Q] CCc1cc(-c2ccccc2)cc(-c2ccccc2)[n+]1-c1ncc[nH]1
Lab log: flag the item ( P or Q ) with the smaller KA figure. Refer to your chosen item by its label in the answer. Q

---

# measurement_target: Carbonic anhydrase 4 (Bos taurus)
# Sequence (whole entry): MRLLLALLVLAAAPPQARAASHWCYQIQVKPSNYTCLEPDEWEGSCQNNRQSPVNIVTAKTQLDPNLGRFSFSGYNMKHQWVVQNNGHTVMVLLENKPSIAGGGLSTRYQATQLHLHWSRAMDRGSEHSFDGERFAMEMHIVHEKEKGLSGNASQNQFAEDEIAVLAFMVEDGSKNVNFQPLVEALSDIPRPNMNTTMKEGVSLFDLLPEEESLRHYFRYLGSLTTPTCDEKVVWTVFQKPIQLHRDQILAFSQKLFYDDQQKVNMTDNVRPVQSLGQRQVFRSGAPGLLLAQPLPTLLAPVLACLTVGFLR
# run_description: Bovine Carbonic anhydrase IV activity using histamine as standard
measure: KA (µM)

Worked cases, answers included:
CCCc1cc(-c2ccccc2)cc(-c2ccccc2)[n+]1-c1ncc[nH]1 5.76
CCc1cc(-c2ccccc2)cc(CC)[n+]1-c1nn[n-]n1 0.055
CC(C)c1cc(-c2ccccc2)cc(C(C)C)[n+]1-c1cc[nH]n1.[O-][Cl+3]([O-])([O-])[O-] 0.008

[1] Cc1cc(C(C)C)[n+](-c2ncc[nH]2)c(C(C)C)c1
[2] Cc1cc(-c2ccccc2)cc(-c2ccccc2)[n+]1-c1cc[nH]n1
[3] CCc1cc(-c2ccccc2)cc(-c2ccccc2)[n+]1-c1cc[nH]n1
[4] Cc1cc(-c2ccccc2)cc(C)[n+]1-c1nn[n-]n1
Let's sort these by KA, smallest first. Go ahead? The labels, placed in the requested order, form the answer. 1, 4, 2, 3
(1: 0.008 µM, 4: 0.063 µM, 2: 1.85 µM, 3: 3.41 µM)

---

# measurement_target: UniProtKB Q95323
# run_description: Bovine Carbonic anhydrase IV activity using histamine as standard
measure: KA (µM)

Worked cases, answers included:
compound	KA (µM)
CCCc1cc(-c2ccccc2)cc(CCC)[n+]1-c1ncc[nH]1	0.62
CCc1cc(-c2ccccc2)cc(-c2ccccc2)[n+]1-c1nn[n-]n1	12.5
Cc1cc(C)[n+](-c2cc[nH]n2)c(C)c1	0.045
CCCc1cc(-c2ccccc2)cc(-c2ccccc2)[n+]1-c1cc[nH]n1	8.23

[P] Cc1cc(C)[n+](-c2ncc[nH]2)c(-c2ccccc2)c1
[Q] CC(C)c1cc(-c2ccccc2)cc(-c2ccccc2)[n+]1-c1cc[nH]n1
[R] Cc1c2cc(c(C)[n+]1C1=NCC=N1)CCCCCCCCC2
[S] CCCc1cc(-c2ccccc2)cc(CCC)[n+]1-c1nn[n-]n1
Please rank these compounds by KA in descending order. The labels, placed in the requested order, form the answer. Q, S, P, R

[P] Cc1cc(-c2ccccc2)cc(C)[n+]1-c1ncc[nH]1.[O-][Cl+3]([O-])([O-])[O-]
[Q] Cc1cc(C)[n+](-c2cc[nH]n2)c(C)c1C
Given P and Q , report the one with the higher recorded KA. Refer to your chosen item by its label in the answer. Q
(Q: 0.038 µM, P: 0.013 µM)

[A] CCc1cc(-c2ccccc2)cc(-c2ccccc2)[n+]1-c1ncc[nH]1
[B] Cc1cc(-c2ccccc2)cc(-c2ccccc2)[n+]1-c1ncc[nH]1
[C] Cc1cc(C)[n+](-c2ncc[nH]2)c(C)c1
Let's sort these by KA, smallest first. Go ahead? The labels, placed in the requested order, form the answer. C, B, A
(C: 0.021 µM, B: 1.24 µM, A: 2.56 µM)

[1] CC(C)c1cc(-c2ccccc2)cc(-c2ccccc2)[n+]1-c1nn[n-]n1
[2] CC(C)c1cc(-c2ccccc2)cc(C(C)C)[n+]1-c1nn[n-]n1
[3] Cc1cc(C)[n+](-c2cc[nH]n2)c(-c2ccccc2)c1
[4] CC(C)c1cc(-c2ccccc2)cc(C(C)C)[n+]1-c1ncc[nH]1.[O-][Cl+3]([O-])([O-])[O-]
[5] Cc1c2cc(c(C)[n+]1-c1cc[nH]n1)CCCCCCCCC2
Let's sort these by KA, smallest first. Go ahead? The labels, placed in the requested order, form the answer. 4, 2, 5, 3, 1

---

Form field: CA activity (one value per entry).
# Organism: Homo sapiens
# run_description: Ex vivo carbonic anhydrase activation was measured after 30 min of incubation of lysed human erythrocyte
# Assay type: functional
# Design: concentration or dose not given beside the values
Quick reminder: number only, in %, skip the unit.

CA activity for CC(C)c1cc(-c2ccccc2)cc(C(C)C)[n+]1-c1cc[nH]n1.[O-][Cl+3]([O-])([O-])[O-] is 189

---

# measurement_target: Carbonic anhydrase 1 (Homo sapiens) (UniProt P00915)
# Sequence (P00915 2-261 limits assumed): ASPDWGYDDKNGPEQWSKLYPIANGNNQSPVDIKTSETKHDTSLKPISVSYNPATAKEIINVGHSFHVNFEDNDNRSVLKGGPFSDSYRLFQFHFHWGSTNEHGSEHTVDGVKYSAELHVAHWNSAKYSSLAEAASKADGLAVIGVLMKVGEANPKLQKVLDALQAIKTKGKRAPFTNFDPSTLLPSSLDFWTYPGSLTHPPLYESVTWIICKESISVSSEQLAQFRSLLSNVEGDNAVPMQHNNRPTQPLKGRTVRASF
# run_description: Activation of human Carbonic anhydrase I, using histamine as standard
measure: KA (µM)

Worked cases, answers included:
NCCc1c[nH]cn1 2.1
Cc1cc(C)[n+](-c2cc[nH]n2)c(C)c1C 0.049
CCCc1cc(-c2ccccc2)cc(CCC)[n+]1-c1nn[n-]n1 2.12
CC(C)c1cc(-c2ccccc2)cc(-c2ccccc2)[n+]1-c1cc[nH]n1 2.5

[I] CC(C)c1cc(-c2ccccc2)cc(C(C)C)[n+]1-c1cc[nH]n1.[O-][Cl+3]([O-])([O-])[O-]
[II] Cc1c2cc(c(C)[n+]1-c1cc[nH]n1)CCCCCCCCC2
[III] CCc1cc(-c2ccccc2)cc(-c2ccccc2)[n+]1-c1cc[nH]n1
Let's sort these by KA, smallest first. Go ahead? The labels, placed in the requested order, form the answer. I, II, III

---

# measurement_target: Carbonic anhydrase 4 (Bos taurus)
# Sequence (whole entry): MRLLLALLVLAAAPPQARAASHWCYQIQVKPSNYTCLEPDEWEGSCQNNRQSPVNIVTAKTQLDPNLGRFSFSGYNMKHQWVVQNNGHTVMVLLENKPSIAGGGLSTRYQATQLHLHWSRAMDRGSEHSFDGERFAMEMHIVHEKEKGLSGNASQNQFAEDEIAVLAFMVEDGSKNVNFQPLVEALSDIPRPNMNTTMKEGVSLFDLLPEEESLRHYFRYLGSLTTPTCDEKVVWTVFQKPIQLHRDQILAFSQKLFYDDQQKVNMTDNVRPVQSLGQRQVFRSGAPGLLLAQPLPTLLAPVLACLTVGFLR
# run_description: Bovine Carbonic anhydrase IV activity using histamine as standard
measure: KA

Worked cases, answers included:
CCCCc1cc(-c2ccccc2)cc(CCCC)[n+]1-c1cc[nH]n1 2.59 µM
c1ccc(-c2cc(-c3ccccc3)[n+](-c3nn[n-]n3)c(-c3ccccc3)c2)cc1 > 50 µM

KA for CCCCc1cc(-c2ccccc2)cc(-c2ccccc2)[n+]1-c1cc[nH]n1 is > 50 µM

---

# measurement_target: Carbonic anhydrase 4 (Bos taurus) (UniProt Q95323)
# run_description: Bovine Carbonic anhydrase IV activity using histamine as standard
measure: KA (µM)

Worked cases, answers included:
molecule	KA, µM
CCCc1cc(-c2ccccc2)cc(-c2ccccc2)[n+]1-c1nn[n-]n1	15.5
CCc1cc(-c2ccccc2)cc(CC)[n+]1-c1cc[nH]n1	0.015
NCCc1c[nH]cn1 [HISTAMINE]	41
Cc1cc(C(C)C)[n+](-c2cc[nH]n2)c(C(C)C)c1	0.016

[P] Cc1cc(-c2ccccc2)cc(C)[n+]1-c1cc[nH]n1
[Q] CCCCc1cc(-c2ccccc2)cc(-c2ccccc2)[n+]1-c1ncc[nH]1
[R] CCc1cc(-c2ccccc2)cc(CC)[n+]1-c1ncc[nH]1
[S] CCCc1cc(-c2ccccc2)cc(CCC)[n+]1-c1cc[nH]n1
Please rank these molecules by KA in descending order. The labels, placed in the requested order, form the answer. Q, S, P, R
(Q: 9.55 µM, S: 1.2 µM, P: 0.017 µM, R: 0.009 µM)
